Recorded z-score by entry
- procedureDetails: PSAC antagonists in infected red cells, primary screen, cell-based, P. falciparum Indochina, OD700, 1 h (AID 1154)
- conditionLabel: P. falciparum Indochina infected RBC osmotic lysis, higher = more signal, called active from +8 up or from −8 down
The source made the active and inactive calls.

A selection of reference data follows.
INSERT INTO measurements (querysmiles, endpointresult) VALUES
  ('O=C1O[C@H](c2ccccc2)[C@H](c2ccccc2)N2[C@H]1[C@@H](C(=O)N1CCN(c3ncccn3)CC1)[C@]1(C(=O)Nc3ccc(C#CC4=CCCCC4)cc31)[C@H]2c1ccc(O)cc1', '0.706 (inactive)'),
  ('COCCOC(=O)N1C(=O)[C@@]2(c3cc(C#CC4=CCCCC4)ccc31)[C@H](C(=O)Nc1nc3ccccc3s1)[C@H]1C(=O)O[C@H](c3ccccc3)[C@H](c3ccccc3)N1[C@@H]2c1ccc(OCCO)cc1', '2.63 (inactive)');

As a next step, examine the compound that follows.
z-score reading for C=CCNC(=O)[C@@H]1[C@H]2C(=O)O[C@H](c3ccccc3)[C@H](c3ccccc3)N2[C@H](c2ccc(OCCO)cc2)[C@@]12C(=O)Nc1ccc(C#Cc3ccc(OC)cc3)cc12 : 3.18 (inactive)

* * *

- procedureDetails: anti-His antibody binders, primary screen, artefact control for SMM control protein annotation, biochemical, small-molecule microarray, 635 nm fluorescence (AID 1128);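 note: score merges feature fluorescence with signal-to-noise for each printed compound spot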
- conditionLabel: anti-His Alexa647 antibody binding, higher = more signal
So basically: composite z-score at 1 or higher? That is criterion met. Lower than 1? That is criterion not met.

Solved entries:
INSERT INTO assay_data (molecule, class) VALUES
  ('COC(=O)C(CC#Cc1ccc2c(c1)[C@]1(C(=O)N2)[C@H](c2ccc(O)cc2)N2[C@H](c3ccccc3)[C@H](c3ccccc3)OC(=O)[C@H]2[C@@H]1C(=O)Nc1nc2ccccc2s1)C(=O)OC', 'criterion met'),
  ('O=C1NC(=O)C2C1C=CC(C(O)c1ccccc1)N2Nc1ccc(Cl)cc1Cl (configuration not stated)', 'criterion met'),
  ('CCN(CC)c1ccc(N2CC=CC34O[C@@H]5/C=C\CCC(C)OC(=O)C5[C@H]3C(=O)N(C(CO)C(C)C)[C@@H]4C2=O)cc1 (some centres not stated)', 'criterion not met'),
  ('COC(=O)[C@@]1(Cc2ccc(OC)cc2)[C@H]2c3cc(C(=O)N(C)C)n(Cc4cccc5ccccc45)c3C[C@H]2CN1C(=O)c1ccccc1', 'criterion met');

## Input Confirm if composite z-score reported for the molecule C#CCN(Cc1ccccc1Br)C(/C=C/c1ccccc1)CO (configuration not stated) is 1 or above.
## Output criterion not met

## Input Confirm if composite z-score reported for the molecule CC(C)c1ccc(NN2C(C(O)c3cc(C(F)(F)F)cc(C(F)(F)F)c3)C=CC3C(=O)N(c4ccccc4)C(=O)C32)cc1 (configuration not stated) is 1 or above.
## Output criterion not met

* * *

- assayedSystem: Concanavalin-A (Canavalia ensiformis) (UniProt P02866)
- Sequence (P02866 whole entry, looked up): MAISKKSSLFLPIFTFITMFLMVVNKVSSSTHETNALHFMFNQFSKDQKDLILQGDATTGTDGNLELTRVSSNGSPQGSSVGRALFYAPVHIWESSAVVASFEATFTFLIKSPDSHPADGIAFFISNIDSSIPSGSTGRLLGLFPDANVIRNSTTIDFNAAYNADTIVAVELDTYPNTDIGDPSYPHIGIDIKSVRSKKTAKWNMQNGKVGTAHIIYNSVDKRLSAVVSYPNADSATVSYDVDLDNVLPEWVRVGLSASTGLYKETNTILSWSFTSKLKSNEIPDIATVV
- procedureDetails: ConA small-molecule binders, primary screen, artefact control for SMM control protein annotation, biochemical, small-molecule microarray, Alexa647 label, 635 nm (AID 1127);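 note: z combines 667 nm emission intensity with signal-to-noise across three replicate slides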
- conditionLabel: ConA-A647 binding fluorescence, higher = more signal
Recorded composite z-score by entry
// print number alone

A selection of reference data follows.
INSERT INTO measurements (compound, endpointresult) VALUES
  ('[N-]=[N+]=NCc1ccccc1[C@@H]1OC(c2ccc(OCCCO)cc2)=N[C@]1(Cc1ccccc1N=[N+]=[N-])C(=O)N1CCOCC1', 1.21),
  ('C=C(COC)/C(=C/C[C@@H](OC(C)=O)c1ccc(OCCO)cc1)c1cc(C(=O)OC)ccc1OC', 0.699),
  ('C=CCN1C(=O)[C@]2(O[C@H](CCO)[C@@H]([Si](C)(C)c3ccc(OC)cc3)[C@@H]2C)c2cc(N3CCCCC3=O)ccc21', 0.877),
  ('COc1ccc(COC2OC[C@]3(C)[C@H]4C5=C(CN3C(=O)OC(C)(C)C)[C@H](C)C(CO)C(CO)C5CC[C@@H]24)cc1 (some centres not stated)', 0.927),
  ('CC(=O)N1Cc2ccccc2C[C@@]2(COC(c3ccc(OCCCO)cc3)=N2)C1=O', 1.15),
  ('[N-]=[N+]=NCc1ccccc1C[C@]1(C(=O)O)N=C(c2ccc(OCCCO)cc2)O[C@H]1c1ccccc1N=[N+]=[N-]', 1.05),
  ('O=C1OCCC/C=C\[C@H]2OC34C=CCN(Cn5nnc6ccccc65)C(=O)[C@H]3N(CCO)C(=O)[C@@H]4C12 (some centres not stated)', 0.216),
  ('COc1ccc(CCNC(=O)[C@@]2(C)c3ccccc3C(=O)N(Cc3cc(F)cc(C(F)(F)F)c3)[C@H]2c2ccc(CO)cc2)cc1', -0.307);

composite z-score reading for CN(C)CCCNC(=O)[C@@]1(C)c2ccccc2C(=O)N(Cc2cc(F)cc(C(F)(F)F)c2)[C@H]1c1ccc(CO)cc1 : -0.282

composite z-score reading for CC(C)(C)OC(=O)CC[C@@]12N=C(c3ccc(OCCCO)cc3)O[C@@H]1c1ccccc1N(CCS(=O)(=O)c1ccccc1)C2=O : 1.14

composite z-score reading for CCCC[C@H]1OB(O)C[C@H]2C1=C(COc1ccccc1)C[C@H]1C(=O)N(C)C(=O)[C@H]12 : -0.271

composite z-score reading for O=C1OCCC/C=C\[C@H]2OC34C=CCN(CCN5CCOCC5)C(=O)[C@H]3N(CCCO)C(=O)[C@@H]4C12 (some centres not stated) : 0.167

* * *

- procedureDetails: CREB reporter modulators without forskolin, primary screen, cell-based, PC12, CRE-LacZ reporter, unstimulated (AID 1145)
- conditionLabel: no forskolin, luminescence, 4.5 h, higher = more signal, called active from +8 up or from −8 down
Active and inactive are the calls of the source.
propertyName: z-score

A selection of reference data follows.
INSERT INTO assay_data (compound, endpointresult) VALUES
  ('COc1cc(CO)cc(I)c1O[C@H]1C=C(C(=O)NCCO)C[C@@H](N(CCN2CCOCC2)C(=O)C2CCOC2)[C@@H]1O (stereo partly drawn)', '0.495 (inactive)'),
  ('COCCn1c(C(=O)N2CCCC2)cc2c1C[C@H]1CN(C(=O)c3ccccc3)[C@@](Cc3ccc(F)cc3)(C(=O)OC)[C@@H]21', '-0.568 (inactive)'),
  ('COc1ccc(CCNC(=O)[C@@]2(Sc3ccc(C)cc3)CC(=O)N(C3CCCCC3)[C@@H]2c2ccc(CO)cc2I)cc1', '-0.168 (inactive)'),
  ('CC(C)C(=C=CC[C@@H](O)c1ccccc1OCCO)CCO', '5.12 (inactive)'),
  ('C=C(CCCC)/C(=C/C[C@@H](OC(C)=O)c1ccccc1OCCO)c1cnc2ccccc2c1', '2.02 (inactive)');

z-score reading for CC[C@@H]1C=C(C(=O)O)[C@H](c2ccco2)N1S(=O)(=O)c1ccc(C)cc1 : -0.518 (inactive)

z-score reading for CC(C)(C)C(=O)N[C@@H](c1ccc(Cl)cc1)[C@]1(C)C[C@H]1C1CCCCC1 : 0.197 (inactive)

z-score reading for COCCCN1C(=O)[C@@]2(Cc3ccccc31)c1ccccc1C(=O)N(Cc1ccccc1C(F)(F)F)[C@H]2c1ccc(CO)cc1 : -0.581 (inactive)

* * *

- Tested on: Noggin (protein binding on small-molecule microarray)
- procedureDetails: Noggin binders on small-molecule microarray, primary screen, biochemical, 635/667 nm fluorescence (AID 1095);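 note: score merges 667 nm feature fluorescence with signal to noise over triplicate slides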
- conditionLabel: 635 nm fluorescence, higher = more signal
So basically: composite z-score at 0.5 or higher? That is True. Lower than 0.5? That is False.

Solved entries:
INSERT INTO results (compound, class) VALUES
  ('COc1ccc(C(O)C2C=CC3C(=O)N(C)C(=O)C3N2N2CCCCC2)c2ccccc12 (configuration not stated)', 'False'),
  ('CCCCC(O)C1C=CC2C(=O)N(c3ccccc3)C(=O)C2N1Nc1ccccc1F (configuration not stated)', 'False'),
  ('NCCCCCNC(=O)[C@@H]1C[C@@H]2C(=O)NCC(=O)N2[C@@H]1c1ccc(O)cc1', 'True'),
  ('Cc1ccc(S[C@]2(C(=O)NC(C)C)CC(=O)N(Cc3ccccc3Cl)[C@@H]2c2ccc(CO)cc2I)cc1', 'False'),
  ('C=CCOC(=O)[C@H]1[C@@H]2C(=O)O[C@@H](c3ccccc3)[C@@H](c3ccccc3)N2[C@@H](c2ccc(OCCOC(=O)[C@@H]3C[C@@H]4C(=O)N[C@@H](CCCCN(C)C)C(=O)N4[C@@H]3c3ccc(O)cc3)cc2)[C@]12C(=O)Nc1ccc(I)cc12', 'True');

We next turn to a different compound, shown below.
## Input Confirm if composite z-score reported for the compound Cc1ccc(S[C@]2(C(=O)NC3CC3)CC(=O)N(C3Cc4ccccc4C3)[C@@H]2c2ccc(CO)cc2)cc1 is 0.5 or above.
## Output False
